- Assay Procedure: Pharmacokinetic determination in rats (IV and PO, plasma, LCMS/MS)
- Format: in vivo, SD rats
- Condition Description: rat, in vivo; IV, 1 mg/kg, male SD rats, overnight fasting, plasma; read-out: T1/2 (converted)
- Experimental: SD rats were used as test animals to study the pharmacokinetic behavior of the example compounds in rats (plasma) after oral administration. The example compounds of the present invention, made in house. 3 SD rats per group, male. Shanghai Jiesijie Experimental Animal Co., Ltd., animal production license number (SCXK (Shanghai) 2013-0006 N0.311620400001794). Formulation of a drug for oral administration: 10% Captisol in 50 mM citrate buffer pH 5.0. […]
Label scheme for half-life: lower than 10 h is false (0), 10 h and above is true (1).

Record excerpt, results attached:
stdin: Hi, just wondering whether "C#Cc1c(F)ccc2cc(O)cc(-c3nc4c5c(nc(OCC6(CN7CCC(=C(F)F)CC7)CC6)nc5c3F)N3C[C@H]5CC[C@H](N5)[C@H]3[C@H](CC)O4)c12" shows half-life of 10 h or higher.
stdout: false (0)

stdin: Does the molecule "[2H]C([2H])([2H])[C@@H]1Oc2nc(-c3cc(O)cc4ccc(F)c(C#C)c34)c(F)c3nc(OCC4(CN5CCC(=CF)CC5)CC4)nc(c23)N2C[C@H]3CC[C@H](N3)[C@@H]12" have recorded half-life that is 10 h or more?
stdout: true (1)

stdin: # check: half-life of "C#Cc1c(F)ccc2cc(O)cc(-c3nc4c5c(nc(OCC6(CN7CCC(=CF)CC7)CC6)nc5c3F)N3C[C@H]5CC[C@H](N5)[C@H]3[C@H](CC)O4)c12" is greater than or equal to 10 h
stdout: true (1)

New cases:
stdin: Dear colleague, could you confirm whether "C#Cc1c(F)ccc2cc(O)cc(-c3nc4c5c(nc(OCC6(CN7CCC(=CF)CC7)CC6)nc5c3F)N3C[C@H]5CC[C@H](N5)[C@H]3[C@H](C)O4)c12" has half-life at or above 10 h?
stdout: true (1)

stdin: Identify whether the reported half-life of the following molecule is 10 h or greater: "[2H]C([2H])([2H])[C@@H]1Oc2nc(-c3cc(N)cc(Cl)c3C(F)(F)F)c(F)c3nc(OCC4(CN5CCC(=NOC)CC5)CC4)nc(c23)N2C[C@H]3CC[C@H](N3)[C@@H]12"
stdout: false (0)

stdin: Given "C#Cc1c(F)ccc2cc(O)cc(-c3nc4c5c(nc(OCC6(CN7CCC(=NOC)CC7)CC6)nc5c3F)N3C[C@H]5CC[C@H](N5)[C@H]3[C@H](C)O4)c12" , state whether its half-life is at least 10 h.
stdout: false (0)

stdin: Entry "C#Cc1c(F)ccc2cc(O)cc(-c3nc4c5c(nc(OCC6(CN7CCC(=C(F)F)CC7)CC6)nc5c3F)N3C[C@H]5CC[C@H](N5)[C@H]3CO4)c12" : is its half-life no less than 10 h?
stdout: true (1)

---

- Assay Procedure: Plasma stability test, mouse plasma;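 further: test compound quantified by LC-MS using positive-mode electrospray ionization and MRM scanning, with an internal standard added in acetonitrile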
- Assay type: in vitro ADME
- Condition Description: Mouse plasma, 37°C, 15 min
Measurement Label: Remaining rate (%) 15 min
Only the number, expressed in %, is required.

stdin: Look up Remaining rate (%) 15 min of "C#Cc1c(F)ccc2cc(O)cc(-c3nc4c5c(nc(OCC6(CN7CCC(=C(F)F)CC7)CC6)nc5c3F)N3C[C@H]5CC[C@H](N5)[C@H]3CO4)c12" and report it.
stdout: 94.74

stdin: Provide measured Remaining rate (%) 15 min value, entry: "[2H]C([2H])(Oc1nc2c3c(nc(-c4cc(O)cc5ccc(F)c(C#C)c45)c(F)c3n1)O[C@@H](C)[C@@H]1[C@@H]3CC[C@H](CN21)N3)C1(C([2H])([2H])N2CCC(=CF)CC2)CC1"
stdout: 97.50

stdin: Return reported Remaining rate (%) 15 min. Input molecule: "C#Cc1c(F)ccc2cc(O)cc(-c3nc4c5c(nc(OCC6(CN7CCC(=C(F)F)CC7)CC6)nc5c3F)N3C[C@H]5CC[C@H](N5)[C@H]3[C@H](C)O4)c12"
stdout: 101.30

stdin: Complete the entry with Remaining rate (%) 15 min for "C#Cc1c(F)ccc2cc(O)cc(-c3nc4c5c(nc(OCC6(CN7CCC(=CF)CC7)CC6)nc5c3F)N3C[C@H]5CC[C@H](N5)[C@H]3[C@H](C)O4)c12"
stdout: 97.30

Consider the additional molecule presented here.
stdin: Please look at this molecule and report its Remaining rate (%) 15 min: "[2H]C([2H])([2H])[C@@H]1Oc2nc(-c3cc(O)cc4ccc(F)c(C#C)c34)c(F)c3nc(OCC4(CN5CCC(=CF)CC5)CC4)nc(c23)N2C[C@H]3CC[C@H](N3)[C@@H]12"
stdout: 99.34
